- MEASURED ON: Free fatty acid receptor 1 (Homo sapiens, UniProt O14842)
- Sequence (O14842 whole entry): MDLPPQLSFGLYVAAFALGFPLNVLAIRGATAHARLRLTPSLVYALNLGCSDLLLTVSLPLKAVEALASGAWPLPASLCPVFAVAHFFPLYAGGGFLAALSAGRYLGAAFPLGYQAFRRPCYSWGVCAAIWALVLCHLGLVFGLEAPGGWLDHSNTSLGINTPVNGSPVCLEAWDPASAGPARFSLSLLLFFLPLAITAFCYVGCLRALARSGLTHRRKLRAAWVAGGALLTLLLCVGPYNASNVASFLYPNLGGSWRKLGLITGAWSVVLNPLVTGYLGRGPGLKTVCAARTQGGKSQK
- PROTOCOL: Agonist activity at human PK-tagged GPR40 expressed in HEK293 cells assessed as EA-tagged beta-arrestin recruitment after 90 mins in presence of 1 % heat inactivated FBS by beta-galactosidase reporter gene assay
- Format: cell-based
TEST READOUT: EC50 (nM)

COMPOUND STRING: CC#C[C@@H](CC(=O)O)c1ccc(OCc2ccc3nc(-c4ccc(OCCC(C)(C)O)cc4)nn3c2)cc1
RESULT UNIT: nM
EC50: 301

[a] CC#C[C@@H](CC(=O)O)c1ccc(OCc2ccc3nc(-c4c(C)cccc4C)nn3c2)cc1
[b] CC#C[C@@H](CC(=O)O)c1ccc(OCc2ccc3nc(-c4ccc(C(C)C)cc4)nn3c2)cc1
Query: Which gives the smaller EC50 number: a or b ? Respond with the label that goes with your answer.
Result: b
(b: 67 nM, a: 108 nM)
